For each of the variants below, state its polymerase ribozyme fitness (log ratio).
B1: TPR 5TU (parent)
chain: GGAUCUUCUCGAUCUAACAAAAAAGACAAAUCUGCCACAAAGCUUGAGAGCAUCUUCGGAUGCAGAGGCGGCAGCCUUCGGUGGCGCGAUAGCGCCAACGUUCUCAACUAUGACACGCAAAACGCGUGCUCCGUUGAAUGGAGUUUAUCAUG

Variants of: B1
Test: polymerase ribozyme fitness, log enrichment relative to wild type (log ratio); higher = more active; in vitro selection for triplet polymerase activity
Fewer inactive variants are shown than the library holds.

Q. Any idea what its polymerase ribozyme fitness (log ratio) is? The variant is A3G C27U G50A C51U C85A G140U
A. ≤ -4.2

Q. Query: polymerase ribozyme fitness (log ratio); subject: C10A C14G A19U A30C C93U
A. ≤ -4.2

Q. # get_value(readout='polymerase ribozyme fitness (log ratio)', item= C32G A91C G117U A137U )
A. ≤ -4.2

Q. Given the variant G34A G46A C76G G136A U144A , what is its reported polymerase ribozyme fitness (log ratio)?
A. ≤ -4.2

Q. Name the recorded polymerase ribozyme fitness (log ratio) for C14A C69G C75A G92U G140U .
A. ≤ -4.2

Q. Entry A22U G50U C96A G136C A142G : reported polymerase ribozyme fitness (log ratio) = ?
A. ≤ -4.2

Q. Give the measured polymerase ribozyme fitness (log ratio) of U55A G59A C75U G92U C99G C129G U139G .
A. ≤ -4.2

Q. Name the reported polymerase ribozyme fitness (log ratio) value associated with the variant G62A A64C C85U C95G C105G A121U U134G U139G U151C
A. ≤ -4.2

Q. I'd like to know its polymerase ribozyme fitness (log ratio). The variant in question is G141C G143C
A. ≤ -4.2

Q. Return reported polymerase ribozyme fitness (log ratio); argument: A30U C36A C85U G92A C96A
A. ≤ -4.2

Q. polymerase ribozyme fitness (log ratio) for A19C A29U C54G C108U ?
A. ≤ -4.2

Q. Any idea what polymerase ribozyme fitness (log ratio) was measured for A12U G71A C75U G84A C85U G117A ?
A. ≤ -4.2

Q. Recorded polymerase ribozyme fitness (log ratio) for A17G C38G C51A U78G U90G C131A , please?
A. ≤ -4.2

Q. Dear colleague, I am looking for the recorded polymerase ribozyme fitness (log ratio) of the following variant: A37C C43U G68U A73C C79G C95U U148G
A. ≤ -4.2

Q. Could you share which polymerase ribozyme fitness (log ratio) value was measured for U45G C87U U111G A147C ?
A. ≤ -4.2

Q. Suppose we examine the variant U9C A12C A20G U53A A73U G92U C114A A121U G140A U151A ; what polymerase ribozyme fitness (log ratio) value has been reported?
A. ≤ -4.2

Q. Would you kindly share the measured polymerase ribozyme fitness (log ratio) for U102C U134G G136U A138U ?
A. ≤ -4.2

Q. What does the record list as polymerase ribozyme fitness (log ratio) for A19G A52U U53A U82C C87G ?
A. ≤ -4.2

Q. What value of polymerase ribozyme fitness (log ratio) has been reported for the following variant? C85A C87A C108U A121U U135C G141A U145A
A. ≤ -4.2

Q. Form field: reported polymerase ribozyme fitness (log ratio) of C43A C69G G92C
A. ≤ -4.2

Q. Looking for the measured polymerase ribozyme fitness (log ratio) of A21U U61A G88A , can you help?
A. ≤ -4.2

Q. Please report the recorded polymerase ribozyme fitness (log ratio) for A49C G59C A91U .
A. ≤ -4.2

Q. # get_value(readout='polymerase ribozyme fitness (log ratio)', item= U7A A29U A49C U53A G84C U102C )
A. ≤ -4.2

Q. Which polymerase ribozyme fitness (log ratio) value is on record for A12C C38U G50C U53A U55G G71U G92U U148C ?
A. ≤ -4.2

Q. Could you tell me which polymerase ribozyme fitness (log ratio) is on file for C85G U102C G141U ?
A. -3.43

Q. Quick one: polymerase ribozyme fitness (log ratio) of A12C A24U A37G A52C C75U C93U ?
A. ≤ -4.2

Q. Data request, read-out polymerase ribozyme fitness (log ratio), for C36U U53A A119G
A. -1.17

Q. Quick one: polymerase ribozyme fitness (log ratio) for A121G A122C A137C ?
A. -4.06

Q. Fill in: polymerase ribozyme fitness (log ratio) of A21C C32G A37U A49G C57U C75G G84A A107C A147U is ___
A. ≤ -4.2

Q. Look up polymerase ribozyme fitness (log ratio): A41U G68U C93U A106G
A. ≤ -4.2

Q. // returns reported polymerase ribozyme fitness (log ratio) for input A12U U55A C57G C103A G128U A147C
A. -4.11

Q. Reported polymerase ribozyme fitness (log ratio) for G50C G86A : what is it?
A. ≤ -4.2

Q. Which measured polymerase ribozyme fitness (log ratio) value corresponds to U78A A91U A138C ?
A. ≤ -4.2

Q. What polymerase ribozyme fitness (log ratio) value was documented for this variant, A29G U55G G94A C108A A119G ?
A. ≤ -4.2

Q. What does the record list as polymerase ribozyme fitness (log ratio) for U15C U145G ?
A. 0.506

Q. Which polymerase ribozyme fitness (log ratio) is reported for this variant? A52C C69A C87U U90C A142U
A. ≤ -4.2

Q. Consider the variant A3C A12U G58C C118U and give its measured polymerase ribozyme fitness (log ratio).
A. -1.52

Q. Which polymerase ribozyme fitness (log ratio) is reported for this variant? G46A G143C
A. -3.81

Q. Quick check: polymerase ribozyme fitness (log ratio) of A23U C108A G143C ?
A. ≤ -4.2

Q. Any idea what polymerase ribozyme fitness (log ratio) was measured for A24C G34A C96G G117C U135G U139A U145A ?
A. ≤ -4.2

Q. For the variant shown here, C18A G86U C103U U145A , give the reported polymerase ribozyme fitness (log ratio).
A. -2.81

Q. Which polymerase ribozyme fitness (log ratio) is listed for U55A C87A C108G ?
A. ≤ -4.2

Q. Param item = G48A U56A U109G ; retrieve measured polymerase ribozyme fitness (log ratio).
A. -1.39

Q. Give the measured polymerase ribozyme fitness (log ratio) of C95G A98G .
A. -1.57

Q. # lookup: polymerase ribozyme fitness (log ratio) of U33A U44G A107G A122G C132U
A. ≤ -4.2

Q. Sample G42A G59A G74U C96G A137G — what was its polymerase ribozyme fitness (log ratio)?
A. ≤ -4.2

Q. Data request, read-out polymerase ribozyme fitness (log ratio), for G62C G143U
A. -3.58

Q. Which polymerase ribozyme fitness (log ratio) value belongs to U55C A119G U145A ?
A. -0.113

Q. Item G46A C96U has what recorded polymerase ribozyme fitness (log ratio)?
A. 0.0159

Q. Given C35U U146C , state its recorded polymerase ribozyme fitness (log ratio).
A. 0.279

Q. I'd like to know its polymerase ribozyme fitness (log ratio). The variant in question is C72G U101G
A. ≤ -4.2

Q. Requested read-out: polymerase ribozyme fitness (log ratio). Entry: G94U
A. 1.12

Q. State the recorded polymerase ribozyme fitness (log ratio) for this entry: A23U C85A
A. ≤ -4.2

Q. Look at this variant and give its reported polymerase ribozyme fitness (log ratio). A119U U139C
A. -3.94

Q. Endpoint output: polymerase ribozyme fitness (log ratio) of A20G G25C G58C A106U . Value?
A. -3.93

Q. Which value of polymerase ribozyme fitness (log ratio) has been reported for C76A G140C in the records?
A. -3.36

Q. I'd like to know its polymerase ribozyme fitness (log ratio). The variant in question is C96A U134A
A. -2.73

Q. Please report the recorded polymerase ribozyme fitness (log ratio) for U56A G74A A138G .
A. ≤ -4.2

Q. Need polymerase ribozyme fitness (log ratio) of C76U C87A A91G A107U G126A U145A , thanks.
A. ≤ -4.2

Q. Which polymerase ribozyme fitness (log ratio) value is on record for C14G A29U A30G C96U ?
A. ≤ -4.2

Q. Param item = A60U C131G ; retrieve measured polymerase ribozyme fitness (log ratio).
A. -3.54

Q. GET /values?readout=polymerase ribozyme fitness (log ratio)&item= A30U G58A C87U U90G U101A A110C G112A G126U
A. ≤ -4.2

Q. Dear colleague, I am looking for the recorded polymerase ribozyme fitness (log ratio) of the following variant: U7G C8A G46C C63U G83C C85G C114G C149A
A. ≤ -4.2

Q. For the variant shown here, C5G C32G C72U A73G A91G A119U G141A , give the reported polymerase ribozyme fitness (log ratio).
A. ≤ -4.2

Q. Please give the measured polymerase ribozyme fitness (log ratio) for this variant: C14G G88U U102A
A. ≤ -4.2

Q. What value of polymerase ribozyme fitness (log ratio) has been recorded for this entry: G88U C95G
A. -3.65

Q. Suppose we examine the variant C85G A107U ; what polymerase ribozyme fitness (log ratio) value has been reported?
A. ≤ -4.2

Q. Return reported polymerase ribozyme fitness (log ratio); argument: C54U G71A A97U C105U A106C
A. ≤ -4.2
